# test_name: In vivo pharmacokinetics
# Parameters: species or system SD rats
# stated_conditions: Sprague-Dawley, rat, plasma; po, 20 mg/kg, male SD rats
observed_property: half-life (h)

| molecule | reading |
| --- | --- |
| Cc1cc(=O)n(-c2ccc(F)cc2)nc1C(=O)Nc1ccc(Oc2ccnc(NC(=O)N3CC(O)C3)c2)c(F)c1 [LAH-1] | 2.2 |

---

# test_name: In vivo pharmacokinetics
# Parameters: species or system SD rats
# stated_conditions: Sprague-Dawley, rat, plasma; po, 20 mg/kg, male SD rats
observed_property: AUC(0-inf) (ng·h/mL)

| compound | reading |
| --- | --- |
| Cc1cc(=O)n(-c2ccc(F)cc2)nc1C(=O)Nc1ccc(Oc2ccnc(NC(=O)N3CC(O)C3)c2)c(F)c1 [LAH-1] | 8210 |
